studySystem: Left-right determination factor 2 (Homo sapiens)
assayInfo: small molecules binding LEFTY2 protein – biochemical, small-molecule microarray, 635 nm fluorescence scan, primary screen (AID 1110)
assayConditions: higher = more signal
The following molecules are listed with their measured composite z-score values.
Note: the reply should be a number with no unit written.

Reference set, count: 6
molecule	recordedMeasurement
COC(=O)C(CC#Cc1ccc2c(c1)[C@]1(C(=O)N2)[C@H](c2ccc(O)cc2)N2[C@H](c3ccccc3)[C@H](c3ccccc3)OC(=O)[C@H]2[C@@H]1C(=O)NC[C@H](O)c1ccccc1)C(=O)OC	0.337
CC(C)[Si]1(C(C)C)OCc2cc(-c3ccc(-c4ccc(Cl)c(Cl)c4)o3)nc(-c3ccccc3)c21	-1.59
COCCOC(=O)N1C(=O)[C@@]2(c3ccccc31)[C@H](c1ccc(O)cc1)N1[C@H](c3ccccc3)[C@H](c3ccccc3)OC(=O)[C@H]1[C@@H]2C(=O)N1CCN(c2ncccn2)CC1	0.332
C=C[C@@H](CO)N(Cc1ccc(OC)cc1)S(=O)(=O)c1ccc(Br)cc1	0.211
O=C(C1N=C(c2ccc(OCCCO)cc2)N(c2ccccc2)O1)N1CCCCC1 (stereo unspecified)	0.413
COCCCNC(=O)[C@@]1(CCC(=O)OC(C)(C)C)N=C(c2ccc(OCCCO)cc2)O[C@H]1c1ccccc1N=[N+]=[N-]	0.473

From here, focus on the item given below.
Looking for the measured composite z-score of COC(=O)[C@@H]1N=C(c2ccc(OCCCO)cc2)O[C@@H]1c1ccccc1 , can you help?
-1.55
